# System: OVCAR-5 ovarian
# PROCEDURE SUMMARY: NCI-60 one-dose screen, 48 h (100 = growth as untreated, 0 = no growth, -100 = all killed)
# MEASUREMENT SETUP: 10 µM
# Experimental: Growth inhibition of the OVCAR-5 human tumor cell line is measured as a screen for anti-cancer activity. Cells are grown in 96 well plates and exposed to the test compound for 48 hours. Compounds are tested at a single concentration, which is 10^-5 M for most compounds. The reported endpoint is percent growth (GI% or GIPRCNT), where numbers from 0 - 100% represent growth inhibition, and numbers from -100% - 0 represent cell death. For example, a value of 40 represents 60% growth inhibition. […]
Compounds without any hit were thinned out: in the full panel of roughly 83,000, 20% have a hit.
Below: a set of entries, each annotated with reported growth.
Numbers only here, please. The scale is %.

Measured on OVCAR-5 ovarian, `COc1ccc(-c2csc(NC(=O)c3ccc(Cc4n[nH]c(=O)c5cccnc45)cc3)n2)cc1` has a documented growth of 95

Measured on OVCAR-5 ovarian, Nc1nc(Cl)nc2c1ncn2C1O[C@H](CO)[C@@H](O)[C@@H]1F (stereo partly drawn) has a documented growth of 47.4

Measured on OVCAR-5 ovarian, C[C@@H](O)[C@H]1C(=O)N2C(C(=O)O)=C(SC3CN[C@H](C(=O)N(C)C)C3)[C@H](C)[C@H]12 (stereo partly drawn) has a documented growth of 100

Measured on OVCAR-5 ovarian, `COc1cc(-c2nn(-c3cccc(NC(=O)CCNc4ccc(N5CCOCC5)cc4)c3)cc2-c2ccncc2)ccc1Cl` has a documented growth of 49

Measured on OVCAR-5 ovarian, `O=C1c2ccccc2C(=O)c2c1ccc1c(=O)n(-c3ccccc3C(F)(F)F)nnc21` has a documented growth of 34.2

Measured on OVCAR-5 ovarian, `COc1ccccc1/C=N\N/C(N)=N\N=C\c1ccccc1OC` has a documented growth of 32.3

Measured on OVCAR-5 ovarian, `O=[N+]([O-])c1cccc(/C=N/NC(=S)NC23CC4CC(CC(C4)C2)C3)c1` has a documented growth of 101

Measured on OVCAR-5 ovarian, `COc1ccc2nc(Cl)c(Cn3nnc(Cc4ccccc4)n3)cc2c1` has a documented growth of 82.8

Measured on OVCAR-5 ovarian, `CCOC(=O)N/N=C/c1ccc(OC)c(OC)c1` has a documented growth of 112

Measured on OVCAR-5 ovarian, `CCOC(=O)c1sc2ncnc(Nc3ccc4c(cnn4C(=O)Nc4ccc(C)c(Cl)c4)c3)c2c1C` has a documented growth of 110

Measured on OVCAR-5 ovarian, `O=[N+]([O-])c1ccc(NCSc2ccc(Cl)cc2)cc1` has a documented growth of 106

Measured on OVCAR-5 ovarian, `Cc1cccc(N=Cc2ccccc2O)c1C` has a documented growth of 108

Measured on OVCAR-5 ovarian, `COc1cc(-c2nn(-c3ccc(NC(=O)NCCNS(=O)(=O)c4ccc(F)cc4)cc3)cc2-c2ccncc2)ccc1Cl` has a documented growth of 27.1

Measured on OVCAR-5 ovarian, `O=C(Nc1ccc(OS(=O)(=O)c2ccccc2)cc1)C1CCCCC1` has a documented growth of 100

Measured on OVCAR-5 ovarian, `O=C1NC(=O)c2c(CCCSc3nc4ccccc4c(=O)n3CCc3ccccc3)cccc21` has a documented growth of 102

Measured on OVCAR-5 ovarian, `O=C(CSc1nnc(-c2cccnc2SCc2ccccc2)o1)Nc1nc(Cl)cc(Cl)n1` has a documented growth of 106

Measured on OVCAR-5 ovarian, COC1OC(COS(=O)OC)C(O)C(O)C1OS(=O)OC (stereo not drawn) has a documented growth of 90.5

Measured on OVCAR-5 ovarian, `CC(=O)Nc1ccc(CC[C@H]2CCC/C=C/[C@@H]3C[C@H](O)C[C@H]3[C@H](O)/C=C/C(=O)O2)cc1` has a documented growth of 23

Measured on OVCAR-5 ovarian, Cc1ccc(C2NC(=S)N3C(c4ccc(C)cc4)NC(=S)N23)cc1 (stereo not drawn) has a documented growth of 81.6

Measured on OVCAR-5 ovarian, O=c1oc2c(cc1-c1ccc(F)cc1)C(O)Oc1ccccc1-2 (stereo not drawn) has a documented growth of 96.2

Every entry's value here was drawn from PubChem BioAssay (NCI).
